TESTED_ON: PIK3CG (human)
ASSAY_COMMENT: KINOMEscan competition binding
SETUP_CONDITIONS: compound 10.0 µM
PARAMETER_MEASURED: kinase still bound, per cent of control

SMILES_STRING | TESTED_ON | kinase still bound, per cent of control
N#C/C(=C1/Nc2ccccc2S1)c1ccnc(NCCc2cccnc2)n1 | PIK3CG (human) | 50%
COc1cc(N2CCC(C(N)=O)CC2)ccc1Nc1nc(N)c(Cl)c(Nc2ccccc2S(=O)(=O)C(C)C)n1 | PIK3CG (human) | 100%
CCc1nc(-c2cccc(C)c2)c(-c2ccnc(NC(=O)c3ccccc3)c2)s1 | PIK3CG (human) | 100%

Please find the next compound below.
Prompt line: Form field: reported kinase still bound, per cent of control of O=c1[nH]c2ccccc2n1C1CCN(Cc2ccc(-c3nc4cc5[nH]cnc5cc4nc3-c3ccccc3)cc2)CC1
Response line: 25%

###

TESTED_ON: UniProtKB Q9H2K8
Sequence (Q9H2K8 whole entry, looked up): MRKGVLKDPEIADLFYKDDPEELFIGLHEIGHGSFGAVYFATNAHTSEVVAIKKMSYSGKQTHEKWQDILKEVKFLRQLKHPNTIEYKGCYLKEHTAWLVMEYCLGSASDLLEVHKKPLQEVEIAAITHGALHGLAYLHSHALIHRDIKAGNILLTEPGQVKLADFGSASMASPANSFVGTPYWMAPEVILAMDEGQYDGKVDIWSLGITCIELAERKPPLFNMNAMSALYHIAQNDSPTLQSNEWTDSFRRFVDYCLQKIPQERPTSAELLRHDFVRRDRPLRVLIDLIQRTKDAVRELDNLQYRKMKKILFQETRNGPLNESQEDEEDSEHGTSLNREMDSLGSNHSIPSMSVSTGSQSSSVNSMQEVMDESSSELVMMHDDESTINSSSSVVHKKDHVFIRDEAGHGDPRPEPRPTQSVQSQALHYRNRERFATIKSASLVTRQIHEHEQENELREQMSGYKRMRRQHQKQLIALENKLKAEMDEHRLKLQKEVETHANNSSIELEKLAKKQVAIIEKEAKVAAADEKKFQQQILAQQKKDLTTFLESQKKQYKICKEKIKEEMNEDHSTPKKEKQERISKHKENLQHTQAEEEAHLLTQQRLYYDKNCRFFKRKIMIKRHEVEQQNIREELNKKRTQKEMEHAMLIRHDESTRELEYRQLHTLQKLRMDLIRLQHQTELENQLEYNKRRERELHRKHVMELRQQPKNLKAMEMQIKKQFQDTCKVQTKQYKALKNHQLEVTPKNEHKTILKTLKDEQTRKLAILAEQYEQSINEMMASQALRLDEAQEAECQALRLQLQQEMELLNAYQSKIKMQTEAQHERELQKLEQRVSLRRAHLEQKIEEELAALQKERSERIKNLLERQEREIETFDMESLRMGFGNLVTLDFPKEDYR
ASSAY_COMMENT: KINOMEscan competition binding
SETUP_CONDITIONS: compound 10.0 µM
PARAMETER_MEASURED: kinase still bound, per cent of control (%)
Numbers only, in %.

COMPOUND | UNIT_ABBREV | kinase still bound, per cent of control
Cc1cn(-c2cc(C(=O)Nc3ccc(C)c(NC(=O)c4ccno4)c3)cc(C(F)(F)F)c2)cn1 | % | 100
O=c1[nH]c2ccccc2n1C1CCN(Cc2ccc(-c3nc4cc5[nH]cnc5cc4nc3-c3ccccc3)cc2)CC1 | % | 84
COc1cc2c(Nc3ccc(NC(=O)c4ccccc4)cc3)ncnc2cc1OCCCN1CCOCC1 | % | 95

For the 4 compounds below, give their kinase still bound, per cent of control values.
1. CCCS(=O)(=O)Nc1ccc(F)c(C(=O)c2c[nH]c3ncc(Cl)cc23)c1F
2. CCc1nc(-c2cccc(C)c2)c(-c2ccnc(NC(=O)c3ccccc3)c2)s1
3. N#Cc1cc(-c2ccnc(Nc3ccc(-n4cnc(-c5cccnc5)n4)cc3)n2)cc(N2CCOCC2)c1
4. C=CC(=O)Nc1ccc(C(=O)c2sc(Nc3ccc(N4CCN(C)CC4)cc3OC)nc2N)cc1

Response line:
61
86
28
23

Prompt line: Form field: reported kinase still bound, per cent of control of CC1=C(C(=O)Nc2cc3cn[nH]c3cc2F)C(c2ccc(C(F)(F)F)cc2)CC(=O)N1 (stereo not drawn)
Response line: 96

###

Give kinase still bound, per cent of control for every item shown.
TESTED_ON: PHKG2 (human) (UniProt P15735)
Sequence (P15735 whole entry, looked up): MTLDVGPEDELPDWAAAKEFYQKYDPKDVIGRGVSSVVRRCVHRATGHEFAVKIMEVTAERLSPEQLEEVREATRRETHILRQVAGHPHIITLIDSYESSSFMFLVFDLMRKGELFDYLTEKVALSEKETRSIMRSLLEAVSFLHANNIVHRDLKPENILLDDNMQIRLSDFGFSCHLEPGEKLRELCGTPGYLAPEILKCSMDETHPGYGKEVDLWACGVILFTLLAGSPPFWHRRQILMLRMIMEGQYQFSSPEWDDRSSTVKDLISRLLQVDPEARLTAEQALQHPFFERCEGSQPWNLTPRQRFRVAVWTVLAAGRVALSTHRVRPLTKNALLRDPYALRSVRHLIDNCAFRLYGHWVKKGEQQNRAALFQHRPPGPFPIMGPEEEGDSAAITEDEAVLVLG
ASSAY_COMMENT: KINOMEscan competition binding
SETUP_CONDITIONS: compound 10.0 µM

Worked examples, 4 molecules total:
MOLECULE | RESULT
CNC(=O)Nc1ccc(-c2nc(N3CC4CCC(C3)O4)c3cnn(C4CCC5(CC4)OCCO5)c3n2)cc1 | 96%
N#C/C(=C1/Nc2ccccc2S1)c1ccnc(NCCc2cccnc2)n1 | 78%
CCN(CCO)CCCOc1ccc2c(Nc3cc(CC(=O)Nc4cccc(F)c4)[nH]n3)ncnc2c1 | 81%
CC1=C(C(=O)Nc2cc3cn[nH]c3cc2F)C(c2ccc(C(F)(F)F)cc2)CC(=O)N1 (stereo not given) | 92%

Please find the next molecule below.
Prompt line: Item COc1cc2ncnc(Nc3cccc(Cl)c3)c2cc1OC with PHKG2 (human) (UniProt P15735) - kinase still bound, per cent of control?
Response line: 93%

Cited source: the kinase profiling compilation of Christmann-Franck et al. (2016)
